Reference for the values: paper PMC12301304

Here the recorded log10(AUC(0-t)) is given for each entry.
- assay_name: Pharmacokinetics of the seven cocktail probe drugs in blank control rats (Group C)
- measurement_conditions: rat, in vivo, po
Answers are given as log10 of AUC(0-t) in ng·h/mL.

Recorded log10(AUC(0-t)), per entry:
INSERT INTO assay_data (compound, observed_measurement) VALUES
  ('C[C@]12CC[C@H]3[C@@H](CCC4=CC(=O)CC[C@@]43C)[C@@H]1CC[C@@H]2O', 3.08),
  ('CC(NC(C)(C)C)C(=O)c1cccc(Cl)c1 (stereo not drawn)', 4.20),
  ('COCCc1ccc(OCC(O)CNC(C)C)cc1 (stereo not drawn)', 3.98),
  ('COc1ccc2[nH]c([S+]([O-])Cc3ncc(C)c(OC)c3C)nc2c1 (stereo not drawn)', 3.58);

Q: Indicate its recorded log10(AUC(0-t)); the compound in question is Cn1c(=O)c2[nH]cnc2n(C)c1=O
Result: 4.34

Q: Indicate its recorded log10(AUC(0-t)); the compound in question is O=C(O)Cc1ccccc1Nc1c(Cl)cccc1Cl
Result: 3.72

====

Here the recorded CYP2b1(%) metabolic clearance rate of probe drug is given for each entry.
- measured_target: CYP2b1 (Rattus norvegicus, UniProt P00176)
- Sequence (P00176 whole entry): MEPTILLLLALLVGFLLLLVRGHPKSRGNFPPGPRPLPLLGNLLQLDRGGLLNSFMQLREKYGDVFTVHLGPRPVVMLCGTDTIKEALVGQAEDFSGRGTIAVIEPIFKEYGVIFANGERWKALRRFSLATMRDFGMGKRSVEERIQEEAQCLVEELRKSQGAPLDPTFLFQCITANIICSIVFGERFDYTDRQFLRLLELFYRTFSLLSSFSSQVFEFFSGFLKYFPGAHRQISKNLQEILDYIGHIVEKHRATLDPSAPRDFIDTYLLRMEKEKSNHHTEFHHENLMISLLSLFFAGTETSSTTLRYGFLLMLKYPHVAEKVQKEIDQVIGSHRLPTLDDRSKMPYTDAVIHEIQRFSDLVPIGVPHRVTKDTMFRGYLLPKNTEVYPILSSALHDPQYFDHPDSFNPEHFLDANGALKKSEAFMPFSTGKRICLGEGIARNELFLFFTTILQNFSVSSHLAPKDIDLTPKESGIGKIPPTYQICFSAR
- assay_name: RLM incubation: metabolic clearance rate of bupropion (CYP2b1)
- measurement_conditions: RLM 0.5 mg/mL, 30 min 37°C, inhibitor added, blank control 7.92 ± 0.60, n = 3
Unit % implied. Number only.

Q: Indicate its recorded CYP2b1(%) metabolic clearance rate of probe drug; the molecule in question is S=P(N1CC1)(N1CC1)N1CC1 [Thiotepa]
Result: 2.24

Q: Indicate its recorded CYP2b1(%) metabolic clearance rate of probe drug; the molecule in question is Nc1ccc(S(=O)(=O)Nc2ccnn2-c2ccccc2)cc1 [Sulfaphenazolum]
Result: 7.74

Q: Indicate its recorded CYP2b1(%) metabolic clearance rate of probe drug; the molecule in question is CC(=O)N1CCN(c2ccc(OCC3COC(Cn4ccnc4)(c4ccc(Cl)cc4Cl)O3)cc2)CC1 (stereo not shown) [Ketoconazole, ketoconazole]
Result: 7.11

Q: Indicate its recorded CYP2b1(%) metabolic clearance rate of probe drug; the molecule in question is O=c1cc(-c2ccccc2)oc2c1ccc1ccccc12 [α-naphthoflavone]
Result: 8.00

====

Here the recorded Cmax is given for each entry.
- assay_name: Pharmacokinetics of the seven cocktail probe drugs in blank control rats (Group C)
- measurement_conditions: rat, in vivo, po
Unit ng/mL implied. Number only.

INSERT INTO measurements (compound, endpoint_unit, observed_measurement) VALUES
  ('COCCc1ccc(OCC(O)CNC(C)C)cc1 (centres unmarked)', 'ng/mL', 891),
  ('COc1ccc2[nH]c([S+]([O-])Cc3ncc(C)c(OC)c3C)nc2c1 (centres unmarked)', 'ng/mL', 995),
  ('C[C@]12CC[C@H]3[C@@H](CCC4=CC(=O)CC[C@@]43C)[C@@H]1CC[C@@H]2O', 'ng/mL', 295),
  ('O=C(O)Cc1ccccc1Nc1c(Cl)cccc1Cl', 'ng/mL', 1080);

Q: Indicate its recorded Cmax; the compound in question is CC(NC(C)(C)C)C(=O)c1cccc(Cl)c1 (centres unmarked)
Result: 1300
